Each entry below carries its recorded Anti-PSMA Fab (SEQ ID NOs: 19, 20) signal.
biological target: T1, Anti-PSMA Fab (SEQ ID NOs: 19, 20); assay: phage binding ELISA; clonal phage supernatant on biotinylated PSMA Fab captured on neutravidin plate; anti-M13-HRP detection
T1 construct: also called 006 PSMA Fab
recorded-endpoint: Anti-PSMA Fab (SEQ ID NOs: 19, 20) signal

| binder | measured-result |
| --- | --- |
| VEKWCVPQWMCGQM [Phage-1942] | 1.95 |
| DIKLCMPEWMCLGF [Phage-1949] | 1.93 |
| ARRSCVFRRGCVFM [Phage-1950] | 1.93 |
| MDNWCTPSWMCVGF [Phage-1948] | 1.93 |
| VEKLCRPSWMCEHM [Phage-1939] | 1.96 |
| TEMWCKPSWMCYGF [Phage-1946] | 1.94 |
| GEKWCIPEWMCTTW [Phage-1941] | 1.95 |
